The origin of these recorded values is patent US20190300882A1.

Provide the recorded Additional cell line Viability (% of control) SKNDZ DXR for the entries that follow.
Test system: SK-N-DZ MYCN-amplified neuroblastoma cell line
Experiment: Secondary validation screen of synthetic lethal miRNAs with low dose IC30 chemotherapy, additional cell line
Type: cell-based
Conditions: miRNA mimic + low dose IC30 doxorubicin

# substance, result
rows = [
    ("hsa-miR-3646 (AAAAUGAAAUGAGCCCAGCCCA; chemistry not given here; listed as Homo sapiens)", "52 % of control"),
    ("hsa-miR-3924 (AUAUGUAUAUGUGACUGCUACU; chemistry not given here; listed as Homo sapiens)", "41 % of control"),
    ("hsa-miR-485-3p (guide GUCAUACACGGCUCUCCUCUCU; chemistry not given here; listed as Homo sapiens)", "69 % of control"),
    ("hsa-miR-100-5p (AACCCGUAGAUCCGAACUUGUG; chemistry not given here; listed as Homo sapiens)", "48 % of control"),
    ("hsa-miR-1321 (CAGGGAGGUGAAUGUGAU; chemistry not given here; listed as Homo sapiens)", "21 % of control"),
]

Dear colleague, could you send me Additional cell line Viability (% of control) SKNDZ DXR for each of the items below? Thanks.
1. hsa-miR-449a (guide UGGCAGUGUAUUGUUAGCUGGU; chemistry not given here; listed as Homo sapiens)
2. hsa-miR-3151 (GGUGGGGCAAUGGGAUCAGGU; chemistry not given here; listed as Homo sapiens)
3. hsa-miR-34c-5p (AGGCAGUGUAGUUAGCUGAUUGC; chemistry not given here; listed as Homo sapiens)

Reply |
1: 49 % of control; 2: 71 % of control; 3: 34 % of control

Ask | I would be grateful if you could share the reported Additional cell line Viability (% of control) SKNDZ DXR for hsa-miR-99b-5p (guide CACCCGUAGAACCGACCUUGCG; chemistry not given here; listed as Homo sapiens) .
Reply | 36 % of control

====

Tested on: KELLY cells
Assay: Secondary validation screen of lethal miRNAs, cell viability
Format: cell-based
Details: miRNA mimic alone
reported_metric: Secondary screen Viability (% of control) KELLY

Here are 5 substances together with their reported answers.
# substance, result
rows = [
    ("hsa-miR-654-5p (guide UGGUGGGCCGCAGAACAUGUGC; chemistry not given here; listed as Homo sapiens)", "7 % of control"),
    ("hsa-miR-1262 (AUGGGUGAAUUUGUAGAAGGAU; chemistry not given here; listed as Homo sapiens)", "8 % of control"),
    ("hsa-miR-544a (guide AUUCUGCAUUUUUAGCAAGUUC; chemistry not given here; listed as Homo sapiens)", "17 % of control"),
    ("hsa-miR-550a-3p (guide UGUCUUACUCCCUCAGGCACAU; chemistry not given here; listed as Homo sapiens)", "15 % of control"),
    ("hsa-miR-192-3p (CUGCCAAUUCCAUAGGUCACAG; chemistry not given here; listed as Homo sapiens)", "54 % of control"),
]

// next entry
Ask | Query the reported Secondary screen Viability (% of control) KELLY for KELLY cells; item: hsa-miR-103a-2-5p (AGCUUCUUUACAGUGCUGCCUUG; chemistry not given here; listed as Homo sapiens)
Reply | 39 % of control

====

System: KELLY cells
Assay: Primary miRNA mimic screen in combination with low dose IC30 of vincristine or doxorubicin, cell viability
Assay type: cell-based
Settings: miRNA mimic 25 nM + low dose IC30 doxorubicin
reported_metric: Primary screen Viability (% of control) Kelly DXR

Here are 5 substances together with their reported answers.
# substance, result
data = [
    ("hsa-miR-34c-5p (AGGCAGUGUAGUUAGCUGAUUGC; chemistry not given here; listed as Homo sapiens)", "74 % of control"),
    ("hsa-miR-3181 (AUCGGGCCCUCGGCGCCGG; chemistry not given here; listed as Homo sapiens)", "34 % of control"),
    ("hsa-miR-34a-5p (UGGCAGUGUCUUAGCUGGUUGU; chemistry not given here; listed as Homo sapiens)", "70 % of control"),
    ("hsa-miR-515-3p (guide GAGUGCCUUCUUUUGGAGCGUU; chemistry not given here; listed as Homo sapiens)", "38 % of control"),
    ("hsa-miR-380-3p (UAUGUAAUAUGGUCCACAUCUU; chemistry not given here; listed as Homo sapiens)", "20 % of control"),
]

Dear colleague, could you send me Primary screen Viability (% of control) Kelly DXR for each of the items below? Thanks.
1. hsa-miR-485-3p (guide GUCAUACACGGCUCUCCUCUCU; chemistry not given here; listed as Homo sapiens)
2. hsa-miR-449a (guide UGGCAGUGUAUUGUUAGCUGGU; chemistry not given here; listed as Homo sapiens)
3. hsa-miR-99b-5p (guide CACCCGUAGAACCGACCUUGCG; chemistry not given here; listed as Homo sapiens)
4. hsa-miR-1321 (CAGGGAGGUGAAUGUGAU; chemistry not given here; listed as Homo sapiens)

Reply |
1. 23 % of control
2. 62 % of control
3. 28 % of control
4. 4 % of control
